# Tested on: BHK-21 cells
# procedure-text: Anti-fibrosis activity test: inhibition of BHK-21 cell proliferation (CCK-8)
# Format: cell-based
# measurement-conditions: Mesocricetus auratus, BHK-21, 48 h, CCK-8, 48 hours after administration
reported-property: IC50

Data request: Please look up its IC50: O=C1c2c(nc3ccccc3c2OCc2c(F)cccc2F)-c2cccn21 [Compound 615b]
Data returned: 0.05 to 5 mM

Data request: Request the reported IC50 associated with O=C1c2c(n(CCO)c3cc(N4CCNCC4)c(F)cc3c2=O)-c2cccn21 [Compound 348a]
Data returned: 20 to 100 mM

Further cases:
Data request: Any idea what IC50 was measured for N#Cc1ccc2c(O)c3c(nc2c1)-c1cccn1C3=O [Compound 512b] ?
Data returned: 0.05 to 5 mM

Data request: Value lookup for IC50; key = O=C1c2c(n(Cc3cccc(F)c3)c3cccc(F)c3c2=O)-c2cccn21 [Compound 475a]
Data returned: 0.05 to 5 mM

Data request: Entry O=C1c2c(n(Cc3ccccc3Cl)c3cc(Cl)ccc3c2=O)-c2cccn21 [Compound 510a] : reported IC50 = ?
Data returned: < 0.05 mM

Data request: For the molecule O=C1c2c(n(Cc3ccc(Cl)cc3)c3c(Cl)cccc3c2=O)-c2cccn21 [Compound 451a] , what IC50 is on record?
Data returned: 0.05 to 5 mM

Data request: // query IC50 value for entry O=C1c2c(nc3cccc(F)c3c2O)-c2cccn21 [Compound 467b]
Data returned: 0.05 to 5 mM
